# subject of test: human α1G T-type channels (Homo sapiens)
# Construct: expressed in transfected cells; host or cells: HEK 293
# Sequence (O43497 whole entry): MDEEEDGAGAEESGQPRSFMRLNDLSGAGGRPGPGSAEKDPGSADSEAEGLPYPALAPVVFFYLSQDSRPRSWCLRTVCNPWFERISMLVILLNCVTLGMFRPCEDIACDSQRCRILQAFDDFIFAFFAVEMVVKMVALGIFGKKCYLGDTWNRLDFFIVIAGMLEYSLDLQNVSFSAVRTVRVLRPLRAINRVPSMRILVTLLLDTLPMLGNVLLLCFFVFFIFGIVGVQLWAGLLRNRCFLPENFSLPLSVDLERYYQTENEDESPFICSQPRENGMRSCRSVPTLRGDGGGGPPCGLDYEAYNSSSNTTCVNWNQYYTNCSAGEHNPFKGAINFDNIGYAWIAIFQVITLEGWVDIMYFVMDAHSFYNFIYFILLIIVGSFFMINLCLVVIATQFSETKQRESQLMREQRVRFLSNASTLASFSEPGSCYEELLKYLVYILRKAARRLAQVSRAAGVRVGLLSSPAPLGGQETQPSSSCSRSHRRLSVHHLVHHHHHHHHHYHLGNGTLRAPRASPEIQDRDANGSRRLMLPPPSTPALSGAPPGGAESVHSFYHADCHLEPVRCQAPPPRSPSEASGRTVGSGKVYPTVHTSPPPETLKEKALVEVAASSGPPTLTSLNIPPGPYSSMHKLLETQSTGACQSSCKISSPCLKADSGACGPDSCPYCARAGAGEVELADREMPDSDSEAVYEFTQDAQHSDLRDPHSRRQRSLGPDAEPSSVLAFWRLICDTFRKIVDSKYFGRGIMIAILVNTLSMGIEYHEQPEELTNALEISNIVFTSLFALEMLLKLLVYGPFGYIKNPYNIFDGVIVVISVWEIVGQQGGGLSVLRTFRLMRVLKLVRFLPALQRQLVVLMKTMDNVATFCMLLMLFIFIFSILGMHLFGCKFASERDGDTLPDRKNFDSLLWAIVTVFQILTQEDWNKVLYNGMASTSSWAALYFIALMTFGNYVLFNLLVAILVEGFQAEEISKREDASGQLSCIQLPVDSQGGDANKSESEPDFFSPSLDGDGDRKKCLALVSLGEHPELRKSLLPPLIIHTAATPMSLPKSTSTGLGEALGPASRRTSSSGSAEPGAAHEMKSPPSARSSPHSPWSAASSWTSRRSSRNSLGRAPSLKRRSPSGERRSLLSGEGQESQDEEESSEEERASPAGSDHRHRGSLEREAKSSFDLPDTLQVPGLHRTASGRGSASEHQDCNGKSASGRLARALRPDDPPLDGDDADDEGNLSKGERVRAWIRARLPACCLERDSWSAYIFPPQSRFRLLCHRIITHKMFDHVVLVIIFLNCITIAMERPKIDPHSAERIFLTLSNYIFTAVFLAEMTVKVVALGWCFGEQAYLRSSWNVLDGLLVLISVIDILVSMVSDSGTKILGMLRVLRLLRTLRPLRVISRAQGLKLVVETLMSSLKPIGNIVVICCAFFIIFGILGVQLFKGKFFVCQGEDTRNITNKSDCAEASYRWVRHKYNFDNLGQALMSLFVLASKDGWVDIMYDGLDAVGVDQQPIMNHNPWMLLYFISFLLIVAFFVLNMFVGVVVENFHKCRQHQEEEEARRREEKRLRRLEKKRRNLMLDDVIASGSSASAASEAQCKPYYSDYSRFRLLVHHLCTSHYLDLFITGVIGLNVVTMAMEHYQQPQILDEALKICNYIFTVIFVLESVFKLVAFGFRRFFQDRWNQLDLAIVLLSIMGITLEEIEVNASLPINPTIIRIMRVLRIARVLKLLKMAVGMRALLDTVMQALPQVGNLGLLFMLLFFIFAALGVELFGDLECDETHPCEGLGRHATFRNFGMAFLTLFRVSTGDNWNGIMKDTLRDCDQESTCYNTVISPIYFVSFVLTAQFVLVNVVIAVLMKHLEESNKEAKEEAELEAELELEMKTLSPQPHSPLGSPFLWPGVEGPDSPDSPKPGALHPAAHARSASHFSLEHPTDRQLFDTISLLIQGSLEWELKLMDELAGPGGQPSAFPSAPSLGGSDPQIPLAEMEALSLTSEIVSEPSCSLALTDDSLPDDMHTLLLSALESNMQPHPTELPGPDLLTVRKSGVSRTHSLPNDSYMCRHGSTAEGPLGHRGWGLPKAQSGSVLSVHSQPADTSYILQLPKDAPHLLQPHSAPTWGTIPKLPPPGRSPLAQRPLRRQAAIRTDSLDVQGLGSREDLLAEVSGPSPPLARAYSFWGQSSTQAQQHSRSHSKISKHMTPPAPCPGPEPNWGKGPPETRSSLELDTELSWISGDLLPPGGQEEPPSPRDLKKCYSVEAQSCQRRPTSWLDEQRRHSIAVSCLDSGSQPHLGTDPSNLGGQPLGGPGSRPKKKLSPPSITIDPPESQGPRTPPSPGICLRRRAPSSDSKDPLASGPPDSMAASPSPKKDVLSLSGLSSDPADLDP
# experiment description: T-type calcium channel block, whole cell patch clamp in HEK cells (α1G)
# Assay type: cell-based
# condition details: HEK cells, patch clamp, mainly non-inactivated protocol; values above 10 μM shown as 10 μM, below 0.30 μM shown as 0.30 μM; read-out: T-type Calcium Channel Block α1G IC50
Reported values of IC50 for individual entries
Field format: number, assumed nM, no unit text.

[
  {
    "compound": "Cc1cc(C)cc(C(=O)NCC2CCN(CCNS(=O)(=O)C3CC3)CC2)c1",
    "IC50, nM": 2040
  }
]

Now for another entry.
### Prompt // Input: COc1cc(F)cc(C(=O)NCC2CCN(CC(=O)N(C)C(C)(C)C)CC2)c1 . Output its IC50 only.
### Response 310

====

# subject of test: human α1H T-type channels (Homo sapiens)
# Construct: expressed in transfected cells; host or cells: HEK 293
# experiment description: T-type calcium channel block, whole cell patch clamp in HEK cells (α1H)
# Format: cell-based
# condition details: HEK cells, patch clamp, mainly non-inactivated protocol; values above 10 μM shown as 10 μM; read-out: T-type Calcium Channel Block α1H IC50
metric: IC50 (nM)
Give a bare numeral; the unit nM is implied.

Example results:
[
  {
    "compound": "Cc1cc(C)cc(C(=O)NCC2CCN(CCNC(=O)OC(C)(C)C)CC2)c1",
    "subject of test": "human α1H T-type channels (Homo sapiens)",
    "metric": "IC50",
    "numeric readout": 760
  },
  {
    "compound": "O=C(CN1CCC(CNC(=O)c2cccc(OC(F)(F)F)c2)CC1)NC1CCCC1",
    "subject of test": "human α1H T-type channels (Homo sapiens)",
    "metric": "IC50",
    "numeric readout": 120
  },
  {
    "compound": "COc1cc(OC)cc(C(=O)NCC2CCN(CC(=O)N3CCC[C@H]3C(F)(F)F)CC2)c1",
    "subject of test": "human α1H T-type channels (Homo sapiens)",
    "metric": "IC50",
    "numeric readout": 270
  },
  {
    "compound": "CN(C(=O)CN1CCC(CNC(=O)c2cccc(Br)c2)CC1)C1(C)CCC1",
    "subject of test": "human α1H T-type channels (Homo sapiens)",
    "metric": "IC50",
    "numeric readout": 260
  },
  {
    "compound": "O=C(NCC1CCN(C(=O)CN2CCCC(C(F)(F)F)C2)CC1)c1cc(C(F)(F)F)cc(C(F)(F)F)c1 (centres unmarked)",
    "subject of test": "human α1H T-type channels (Homo sapiens)",
    "metric": "IC50",
    "numeric readout": 2340
  }
]

### Prompt Supply measured IC50 of CN(CCN1CCC(CNC(=O)c2cc(F)cc(C(F)(F)F)c2)CC1)C(=O)CCC(F)(F)F in your reply.
### Response 420

### Prompt // Input: CC(C)NC(=O)CN1CCC(CNC(=O)c2cc(F)cc(Cl)c2)CC1 . Output its IC50 only.
### Response 2810

### Prompt Specify reported IC50 for the compound shown: CC(C)(C)S(=O)(=O)NCCN1CCC(CNC(=O)c2cccc(OC(F)(F)F)c2)CC1
### Response 200

====

# subject of test: human α1H T-type channels (Homo sapiens, UniProt O95180)
# Construct: expressed in transfected cells; host or cells: HEK 293
# Sequence (O95180 whole entry): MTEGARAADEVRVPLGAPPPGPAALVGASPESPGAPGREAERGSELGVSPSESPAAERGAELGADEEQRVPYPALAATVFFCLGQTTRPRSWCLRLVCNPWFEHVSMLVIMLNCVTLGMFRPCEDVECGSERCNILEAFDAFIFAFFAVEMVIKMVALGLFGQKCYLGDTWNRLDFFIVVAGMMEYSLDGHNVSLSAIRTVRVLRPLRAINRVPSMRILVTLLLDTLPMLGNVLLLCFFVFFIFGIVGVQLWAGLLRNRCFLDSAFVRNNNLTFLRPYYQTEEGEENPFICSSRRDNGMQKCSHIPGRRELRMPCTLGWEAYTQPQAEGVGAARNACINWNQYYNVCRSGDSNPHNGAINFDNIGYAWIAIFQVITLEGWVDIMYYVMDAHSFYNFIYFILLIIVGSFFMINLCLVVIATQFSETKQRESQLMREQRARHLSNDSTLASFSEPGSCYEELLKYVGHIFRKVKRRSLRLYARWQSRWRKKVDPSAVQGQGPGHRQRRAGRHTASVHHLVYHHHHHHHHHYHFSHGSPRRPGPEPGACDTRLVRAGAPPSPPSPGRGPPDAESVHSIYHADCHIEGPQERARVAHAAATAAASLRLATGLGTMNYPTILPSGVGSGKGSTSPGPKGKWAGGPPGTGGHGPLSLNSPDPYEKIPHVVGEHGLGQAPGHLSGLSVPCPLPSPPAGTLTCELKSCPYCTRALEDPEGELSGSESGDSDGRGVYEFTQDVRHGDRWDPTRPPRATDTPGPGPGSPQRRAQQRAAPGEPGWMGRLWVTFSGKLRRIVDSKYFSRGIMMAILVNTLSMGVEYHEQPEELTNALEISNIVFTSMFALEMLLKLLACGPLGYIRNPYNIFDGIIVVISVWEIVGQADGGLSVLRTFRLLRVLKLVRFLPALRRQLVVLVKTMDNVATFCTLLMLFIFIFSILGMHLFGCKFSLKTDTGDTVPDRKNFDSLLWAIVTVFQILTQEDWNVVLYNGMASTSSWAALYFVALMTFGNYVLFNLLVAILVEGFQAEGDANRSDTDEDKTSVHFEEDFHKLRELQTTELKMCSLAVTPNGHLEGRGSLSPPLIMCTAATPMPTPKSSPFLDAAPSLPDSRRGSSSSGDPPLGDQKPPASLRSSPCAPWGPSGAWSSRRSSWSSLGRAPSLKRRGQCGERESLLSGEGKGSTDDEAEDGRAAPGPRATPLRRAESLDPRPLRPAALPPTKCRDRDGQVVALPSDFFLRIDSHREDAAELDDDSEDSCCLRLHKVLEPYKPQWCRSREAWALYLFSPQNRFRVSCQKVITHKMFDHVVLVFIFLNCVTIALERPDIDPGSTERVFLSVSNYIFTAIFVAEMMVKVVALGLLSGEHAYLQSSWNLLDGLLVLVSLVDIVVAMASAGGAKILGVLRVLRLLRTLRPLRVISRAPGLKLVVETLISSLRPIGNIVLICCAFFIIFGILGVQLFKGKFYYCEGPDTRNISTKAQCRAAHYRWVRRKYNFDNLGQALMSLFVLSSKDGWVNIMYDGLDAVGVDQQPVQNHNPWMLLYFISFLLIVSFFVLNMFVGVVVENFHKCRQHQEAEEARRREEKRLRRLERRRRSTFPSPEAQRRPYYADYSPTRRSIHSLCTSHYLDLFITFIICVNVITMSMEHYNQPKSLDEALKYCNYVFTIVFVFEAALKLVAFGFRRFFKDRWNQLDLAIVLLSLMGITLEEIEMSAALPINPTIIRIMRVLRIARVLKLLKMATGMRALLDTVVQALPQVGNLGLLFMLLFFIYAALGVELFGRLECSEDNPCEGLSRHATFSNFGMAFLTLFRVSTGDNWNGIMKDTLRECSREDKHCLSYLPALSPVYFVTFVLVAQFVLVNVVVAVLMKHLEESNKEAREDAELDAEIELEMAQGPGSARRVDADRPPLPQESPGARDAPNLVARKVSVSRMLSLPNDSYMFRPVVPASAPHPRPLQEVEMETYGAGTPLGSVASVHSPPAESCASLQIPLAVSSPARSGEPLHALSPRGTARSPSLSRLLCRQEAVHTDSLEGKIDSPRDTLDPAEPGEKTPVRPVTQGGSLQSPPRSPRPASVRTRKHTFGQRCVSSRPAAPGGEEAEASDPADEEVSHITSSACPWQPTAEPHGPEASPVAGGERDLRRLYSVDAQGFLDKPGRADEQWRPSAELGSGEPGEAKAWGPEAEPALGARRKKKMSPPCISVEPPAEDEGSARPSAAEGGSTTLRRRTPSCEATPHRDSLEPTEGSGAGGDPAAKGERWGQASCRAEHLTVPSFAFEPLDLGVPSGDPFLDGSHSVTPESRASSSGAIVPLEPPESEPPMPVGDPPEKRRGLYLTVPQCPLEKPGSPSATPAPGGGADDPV
# experiment description: T-type calcium channel block, whole cell patch clamp in HEK cells (α1H)
# Assay type: cell-based
# condition details: HEK cells, patch clamp, mainly non-inactivated protocol; values above 10 μM shown as 10 μM; read-out: T-type Calcium Channel Block α1H IC50
metric: IC50

Some solved entries appear below for comparison.
[
  {
    "compound": "O=C(CN1CCC(CNC(=O)c2cc(C(F)(F)F)cc(C(F)(F)F)c2)CC1)NC1CCCC1",
    "IC50": "60 nM"
  },
  {
    "compound": "O=C(CCC(F)(F)F)NCCN1CCC(CNC(=O)c2cccc(OC(F)(F)F)c2)CC1",
    "IC50": "330 nM"
  },
  {
    "compound": "COc1cc(F)cc(C(=O)NCC2CCN(CCNS(=O)(=O)C(C)C)CC2)c1",
    "IC50": "870 nM"
  },
  {
    "compound": "CC(C)(C)NC(=O)CN1CCC(CNC(=O)c2cc(Br)cc(C(F)(F)F)c2)CC1",
    "IC50": "90 nM"
  },
  {
    "compound": "O=C(NCC1CCN(CC(=O)N2CCC[C@H]2C(F)(F)F)CC1)c1cccc(Cl)c1",
    "IC50": "120 nM"
  },
  {
    "compound": "CN(C(=O)CN1CCC(CNC(=O)c2cccc(OC(F)(F)F)c2)CC1)C(C)(C)C",
    "IC50": "210 nM"
  },
  {
    "compound": "O=C(NCC1CCN(CC(=O)N2CCC[C@H]2C(F)(F)F)CC1)c1cccc(Br)c1",
    "IC50": "90 nM"
  },
  {
    "compound": "CC1CCCCC1NCC(=O)N1CCC(CNC(=O)c2cc(C(F)(F)F)cc(C(F)(F)F)c2)CC1 (centres unmarked)",
    "IC50": "480 nM"
  }
]

### Prompt Report IC50 on human α1H T-type channels (Homo sapiens, UniProt O95180) for this entry: CN(C(=O)CN1CCC(CNC(=O)c2cc(F)cc(C(F)(F)F)c2)CC1)C1(C)CCC1
### Response 160 nM

====

# subject of test: human α1H T-type channels (Homo sapiens)
# Construct: expressed in transfected cells; host or cells: HEK 293
# experiment description: T-type calcium channel block, whole cell patch clamp in HEK cells (α1H)
# Format: cell-based
# condition details: HEK cells, patch clamp, mainly non-inactivated protocol; values above 10 μM shown as 10 μM; read-out: T-type Calcium Channel Block α1H IC50
Mark satisfied only when IC50 stays strictly below 600 nM. Values equal to the cut-off are not satisfied.

Record excerpt, results attached:
[
  {
    "compound": "O=C(NCC1CCN(C(=O)CNC2CCCCC2)CC1)c1cc(C(F)(F)F)cc(C(F)(F)F)c1",
    "classification": "satisfied"
  },
  {
    "compound": "O=C(NCC1CCN(CCNS(=O)(=O)C2CC2)CC1)c1cccc(C(F)(F)F)c1",
    "classification": "not satisfied"
  },
  {
    "compound": "O=C(NCC1CCN(C2CN(C(=O)c3cc(Cl)cc(Cl)c3)C2)CC1)c1cc(F)cc(Cl)c1",
    "classification": "not satisfied"
  },
  {
    "compound": "COCC(COC)NC(=O)CN1CCC(CNC(=O)c2cc(C(F)(F)F)cc(C(F)(F)F)c2)CC1",
    "classification": "satisfied"
  },
  {
    "compound": "CC(C)(C)OC(=O)NC1(C(=O)NCCN2CCC(CNC(=O)c3cc(F)cc(C(F)(F)F)c3)CC2)CCC1",
    "classification": "not satisfied"
  },
  {
    "compound": "CC(C)(C)C(=O)NCCN1CCC(CNC(=O)c2cccc(C(F)(F)F)c2)CC1",
    "classification": "not satisfied"
  },
  {
    "compound": "COc1cc(Cl)cc(C(=O)NCC2CCN(CC(=O)N(C)C3(C)CCC3)CC2)c1",
    "classification": "satisfied"
  }
]

Okay, next one:
### Prompt Field: below-cutoff. Rule: recorded IC50 strictly less than 600 nM. Subject: Cc1cc(C)cc(C(=O)NCC2CCN(CCNC(=O)C3(C(F)(F)F)CC3)CC2)c1
### Response satisfied

====

# subject of test: human α1H T-type channels (Homo sapiens)
# Construct: expressed in transfected cells; host or cells: HEK 293
# experiment description: T-type calcium channel block, whole cell patch clamp in HEK cells (α1H)
# Assay type: cell-based
# condition details: HEK cells, patch clamp, mainly non-inactivated protocol; values above 10 μM shown as 10 μM; read-out: T-type Calcium Channel Block α1H IC50
metric: pIC50
# pIC50 = -log10(concentration in molar units)

[
  {
    "compound": "CC(C)(C)S(=O)(=O)NCCN1CCC(CNC(=O)c2cc(F)cc(Cl)c2)CC1",
    "subject of test": "human α1H T-type channels (Homo sapiens)",
    "pIC50": 6.66
  },
  {
    "compound": "O=C(CC1CCN(C(=O)[C@@H]2CCCCN2)CC1)Nc1cc(C(F)(F)F)cc(C(F)(F)F)c1",
    "subject of test": "human α1H T-type channels (Homo sapiens)",
    "pIC50": 5.71
  },
  {
    "compound": "CC(C)(C)NCC(=O)N1CCC(CNC(=O)c2cc(C(F)(F)F)cc(C(F)(F)F)c2)CC1",
    "subject of test": "human α1H T-type channels (Homo sapiens)",
    "pIC50": 5.76
  },
  {
    "compound": "CC(C)(C)[S+]([O-])NCCN1CCC(CNC(=O)c2cc(F)cc(C(F)(F)F)c2)CC1 (centres unmarked)",
    "subject of test": "human α1H T-type channels (Homo sapiens)",
    "pIC50": 6.44
  },
  {
    "compound": "CC1(C(=O)N2CC(N3CCC(CNC(=O)c4cc(F)cc(Cl)c4)CC3)C2)CCC(F)(F)CC1",
    "subject of test": "human α1H T-type channels (Homo sapiens)",
    "pIC50": 6.54
  }
]

### Prompt Consider the compound COc1cc(Cl)cc(C(=O)NCC2CCN(CCNS(=O)(=O)C(C)C)CC2)c1 and give its recorded pIC50.
### Response 5.79

### Prompt Consider the compound CC(C)(F)C(=O)NCCN1CCC(CNC(=O)c2cc(F)cc(C(F)(F)F)c2)CC1 . State its measured pIC50.
### Response 5.94

### Prompt Name the recorded pIC50 of the item COCC(C)(C)NC(=O)CN1CCC(CNC(=O)c2cccc(Cl)c2)CC1 in your answer.
### Response 6.09

### Prompt Read the entry CCS(=O)(=O)NC1(CN2CCC(CNC(=O)c3cc(C(F)(F)F)cc(C(F)(F)F)c3)CC2)CC1 and write its reported pIC50.
### Response 6.28

### Prompt Provide pIC50 value for the following compound: CC(C)(C)NC(=O)CN1CCC(CNC(=O)c2cccc(OC(F)(F)F)c2)CC1
### Response 7.15

### Prompt Identify measured pIC50 associated with COc1cc(Cl)cc(C(=O)NCC2CCN(CCNS(=O)(=O)C(F)(F)F)CC2)c1
### Response 5.16

### Prompt // fetch pIC50 given entry O=C(NCC1CCN(CCNC(=O)C2(C(F)(F)F)CCCC2)CC1)c1cc(C(F)(F)F)cc(C(F)(F)F)c1
### Response 6.92

### Prompt Recall and state the measured pIC50 for O=C(NCC1CCN(C(=O)CNC2CC2)CC1)c1cc(C(F)(F)F)cc(C(F)(F)F)c1 .
### Response 5.62

### Prompt Give a short answer stating reported pIC50 for Cc1cc(F)cc(C(=O)NCC2CCN(CCNC(=O)C(C)(C)C(F)(F)F)CC2)c1 .
### Response 6.92
